TESTED ON: Bromodomain-containing protein 4 (Homo sapiens)
EXPERIMENT DESCRIPTION: Inhibition of BRD4 BD2 (unknown origin) preincubated for 15 mins followed by addition of C-terminal biotinylated synthetic K5,8,12,16 tetra-acetylated histone H4 (1 to 20 residues) peptide as substrate measured after 1 hr by TR-FRET assay
pIC50: −log10 of the molar value.
ASSAY METRIC: pIC50

Study these solved cases before continuing.
Query :: Look at this molecule and give its reported pIC50. Cn1c(=O)[nH]c2cc(N3C(=O)c4cccc5c(CCCO)ccc(c45)C3=O)ccc21
Result :: < 4.70

Query :: Look at this molecule and give its reported pIC50. Cn1c(=O)n(C)c2cc(N3C(=O)c4cccc5cccc(c45)C3=O)ccc21
Result :: < 4.70

Each of the following entries comes with a recorded value; kindly state pIC50 for each.
1. Cc1cc2c(cc1N1C(=O)c3cccc4cc(C#N)cc(c34)C1=O)n(C)c(=O)n2C
2. Cc1cc2c(cc1N1C(=O)c3cccc4c(N(C)CCN5CCCC5)ccc(c34)C1=O)n(C)c(=O)n2C
3. Cc1cc2c(cc1N1C(=O)c3cccc4c(N5CCOCC5)ccc(c34)C1=O)n(C)c(=O)n2C

Result ::
< 4.70
< 4.82
< 4.82

* * *

TESTED ON: Peregrin (Homo sapiens)
Sequence (P55201 whole entry, the tested form may be a part): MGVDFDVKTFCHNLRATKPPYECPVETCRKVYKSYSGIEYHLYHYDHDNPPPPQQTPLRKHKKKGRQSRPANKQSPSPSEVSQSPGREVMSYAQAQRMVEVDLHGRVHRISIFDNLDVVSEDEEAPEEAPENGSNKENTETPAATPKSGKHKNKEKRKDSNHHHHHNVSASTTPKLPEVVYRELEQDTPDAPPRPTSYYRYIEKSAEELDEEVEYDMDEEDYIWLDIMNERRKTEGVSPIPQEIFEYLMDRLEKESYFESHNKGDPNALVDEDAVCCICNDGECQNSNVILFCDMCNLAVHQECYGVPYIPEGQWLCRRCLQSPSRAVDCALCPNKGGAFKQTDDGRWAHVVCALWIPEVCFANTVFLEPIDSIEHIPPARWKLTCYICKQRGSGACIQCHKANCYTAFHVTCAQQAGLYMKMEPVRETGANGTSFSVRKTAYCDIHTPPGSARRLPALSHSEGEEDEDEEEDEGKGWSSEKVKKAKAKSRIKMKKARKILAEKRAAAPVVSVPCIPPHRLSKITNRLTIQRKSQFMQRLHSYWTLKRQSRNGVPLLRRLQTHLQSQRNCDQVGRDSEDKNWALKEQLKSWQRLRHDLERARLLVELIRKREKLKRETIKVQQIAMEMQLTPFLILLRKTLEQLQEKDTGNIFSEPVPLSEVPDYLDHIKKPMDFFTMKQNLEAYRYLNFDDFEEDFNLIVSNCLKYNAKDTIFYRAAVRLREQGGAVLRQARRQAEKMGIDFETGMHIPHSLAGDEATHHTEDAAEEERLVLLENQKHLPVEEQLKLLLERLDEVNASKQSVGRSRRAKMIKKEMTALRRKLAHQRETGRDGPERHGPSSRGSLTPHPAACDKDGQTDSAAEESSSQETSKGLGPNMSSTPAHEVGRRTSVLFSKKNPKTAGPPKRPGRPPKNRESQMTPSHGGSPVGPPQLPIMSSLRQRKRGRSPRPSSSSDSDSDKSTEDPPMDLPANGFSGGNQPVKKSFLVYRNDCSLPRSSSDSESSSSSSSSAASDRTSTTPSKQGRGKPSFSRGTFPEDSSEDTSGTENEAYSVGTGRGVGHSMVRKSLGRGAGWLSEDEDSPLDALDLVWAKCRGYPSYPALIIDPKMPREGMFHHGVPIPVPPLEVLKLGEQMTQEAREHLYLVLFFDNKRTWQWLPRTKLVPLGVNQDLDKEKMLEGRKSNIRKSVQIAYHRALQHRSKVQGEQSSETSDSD
EXPERIMENT DESCRIPTION: Inhibition of Halo-tagged histone H4 binding to C-terminally NanoLuc luciferase conjugated BRPF1 BD (626 to 732 residues) (unknown origin) expressed in human HCT116 cells after 4 to 24 hrs by BRET assay
Type: cell-based
ASSAY METRIC: IC50

Query :: Look at this molecule and give its reported IC50. Cc1cc2c(cc1N1C(=O)c3cccc4cccc(c34)C1=O)n(C)c(=O)n2C
Result :: > 10 µM

Now turn to the next molecule.
Query :: Look at this molecule and give its reported IC50. COc1cc2c(cc1N1C(=O)c3cccc4cccc(c34)C1=O)n(C)c(=O)n2C
Result :: > 10 µM

* * *

Please respond with reported solubility for every item in the list.
EXPERIMENT DESCRIPTION: Aqueous solubility of the compound in DMSO at pH 6.5 after 24 hrs by HPLC-MS/MS analysis
Assay type: physicochemical
COND: pH 6.5, 24 h
Answers are plain numbers, in µg/mL.

Study these solved cases before continuing.
Query :: Look at this molecule and give its reported solubility. Cc1cc2c(cc1N1C(=O)c3cccc4c(N5CCN(CCN(C)C)CC5)ccc(c34)C1=O)n(C)c(=O)n2C
Result :: 159

Query :: Look at this molecule and give its reported solubility. Cc1cc2c(cc1N1C(=O)c3cccc4c(CCCCO)ccc(c34)C1=O)n(C)c(=O)n2C
Result :: 10

***
Query :: Look at this molecule and give its reported solubility. Cc1cc2c(cc1N1C(=O)c3cccc4c(N5CCCC5)ccc(c34)C1=O)n(C)c(=O)n2C
Result :: 0.1
